For each of the binders below, state its EC50 of peptide.
Molecular target: T1, KRAS G12D peptide on HLA-A*11:01 (human)
T1 peptide: VVVGADGVGK
Assay: CD137 by flow cytometry; transduced primary CD4+ and CD8+ T cells, TRAC/TRBC wild type; G12D peptide titrated (FIG. 3E); full-length, on cells
Experimental: Primary CD4+ and CD8+ T cells were transduced with a KRAS-G12D-specific T cell receptor (TCR69, TCR79, TCR80, TCR81, or TCR91), and were either edited to knockout TRAC and TRBC or left with unmodified TRAC and TRBC genes, and expanded for several days. Engineered T cells were incubated with G12D peptide at decreasing concentrations and T cell responses were assessed by measuring CD137 expression. […]
Answers are plain numbers, in nM.

TCR2 (TCR, V domains shown) Valpha: AQTVTQSQPEMSVQEAETVTLSCTYDTSENNYYLFWYKQPPSRQMILVIRQEAYKQQNATENRFSVNFQKAAKSFSLKISDSQLGDTAMYFCAFMYPSQGGSEKLVFGKGMKLTVNP Vbeta: ETGVTQSPTHLIKTRGQQVTLRCSSQSGHNTVSWYQQALGQGPQFIFQYYREEENGRGNFPPRFSGLQFPNYSSELNVNALELDDSALYLCASSSPGFRSYGYTFGSGTRLTVV	31.6
TCR5 (TCR, V domains shown) Valpha: GEDVEQSLFLSVREGDSSVINCTYTDSSSTYLYWYKQEPGAGLQLLTYIFSNMDMKQDQRLTVLLNKKDKHLSLRIADTQTGDSAIYFCAERDAGNNRKLIWGLGTSLAVNP Vbeta: GAGVSQSPRYKVAKRGQDVALRCDPISGHVSLFWYQQALGQGPEFLTYFQNEAQLDKSGLPSDRFFAERPEGSVSTLKIQRTQQEDSAVYLCASSLEGGDTQYFGPGTRLTVL	36.3

Now look at this entry.
Return reported EC50 of peptide; argument: TCR1 (TCR, V domains shown) Valpha: GDSVTQMEGPVTLSEEAFLTINCTYTATGYPSLFWYVQYPGEGLQLLLKATKADDKGSNKGFEATYRKETTSFHLEKGSVQVSDSAVYFCALSDRVGGARLMFGDGTQLVVKP Vbeta: EADIYQTPRYLVIGTGKKITLECSQTMGHDKMYWYQQDPGMELHLIHYSYGVNSTEKGDLSSESTVSRIRTEHFPLTLESARPSHTSQYLCASSEGLYNEQFFGPGTRLTVL
119
